Hi there, I'd appreciate the recorded melting point for every entry that follows.

Would you please look over these solved cases?
Cc1ccc2c(c1)C(=NNC(=N)N)CC2	> 250 °C
Cc1cc(F)cc(-c2ccc3c(c2)C2(CCCCC2)C(=O)N3)c1	180 to 182 °C
Clc1ccnc(-n2ccnc2)n1	138 to 139 °C

// input: 2 compounds below; output: melting point for each
1. COc1cc(/C=C\c2cnc(N)nc2N)cc(OC)c1OC
2. CCCn1cc(Cc2ccc(C(=O)O)cc2OC)c2cc(CC3CCN(C)C3=O)ccc21 (configuration not stated)

Data returned:
1. 175 to 177 °C
2. 98 to 107 °C

* * *

quantity_kind: melting point

Would you please look over these solved cases?
C=CCON1C(=O)c2ccc(Cl)c3c(N4CC[C@H](NC(=O)OC(C)(C)C)C4)cc(Cl)c(c23)C1=O	123 to 125 °C
CCOC(=O)Cn1[nH]c(=O)c2ccccc2c1=O	68 to 70 °C
COC(=O)c1c(C)[nH]c(-c2ncncc2Cl)c1C(=O)OC	180 to 181 °C
O=C(c1cc2ccnc(Cl)c2[nH]1)N1CCCC1	152 to 154 °C

// input: 3 compounds below; output: melting point for each
1. CNC(=O)N1CC(Oc2ccc(Cl)cc2Cl)C1
2. COc1cc2c(cc1OC)CN(CCCCc1ccc(NC(=O)c3cccc4c(=O)cc(-c5ccccc5)oc34)cc1)CC2
3. O=C(O)C(=O)NCCCCCC1CCSS1 (configuration not stated)

Data returned:
1: 140 to 141 °C; 2: 117 to 120 °C; 3: 75 to 79 °C

* * *

quantity_kind: melting point

Would you please look over these solved cases?
C=CCc1cc(C)cc(C(Nc2ccc(C(=N)N)cc2)C(=O)O)c1OCCO (racemic)	228 °C
O=C(O)CCCOc1cccc(CCCCCCOc2cc(-c3ccsc3)cc(-c3ccc4c(c3)OCO4)c2)c1CCC(=O)O	110 to 112 °C
CCCc1c(OCCCOc2ccc(C(=O)O)cc2Br)ccc(C(C)=O)c1OC(=O)CC	136 to 137 °C
COc1ccc(-c2cc(=S)n(Cc3ccncc3)nc2-c2ccc(OC)cc2)cc1	160 °C
CN(c1cccc2cc(C(=O)NCC(C)(CCO)SCc3ccccc3)[nH]c12)S(=O)(=O)c1cccs1 (stereo not given)	132 to 133 °C

// input: 7 compounds below; output: melting point for each
1. NC(Cc1cccc2cccc(Br)c12)=NO
2. Cc1cn(-c2ccc(N)c(C)c2)c(C)n1
3. COCc1ccoc1-c1cc(-n2c(N)nc3ccccc32)ccc1C
4. Cc1oc(-c2ccccc2)nc1COc1ccc(/C=C/CO)cc1C(F)(F)F
5. COc1cccc(C2=C(c3ccc(C(=O)N4Cc5cccn5Cc5ccccc54)cc3C)CCCC2)c1
6. Oc1cccc2c1C[C@@H](O)[C@H](O)C2 (relative stereo)
7. O=C(O)c1cc(F)c(F)c(OC(F)F)c1F

Data returned:
1: 123 to 125 °C; 2: 92 to 96 °C; 3: 174 to 176 °C; 4: 152 to 153 °C; 5: 91 to 94 °C; 6: 183 to 184 °C; 7: 68 to 70 °C

* * *

Hi there, I'd appreciate the recorded melting point for every entry that follows.

COCCOCn1c(Cl)c(C=O)c2ccccc21	52.5 to 54 °C

// input: 2 compounds below; output: melting point for each
1. CN(C)c1cc(-c2c[nH]cn2)ccn1
2. CC(C)N(C)C(=O)C(Cc1ccc(C=O)cc1)NC(=O)OC(C)(C)C (centres undefined)

Data returned:
173 to 174 °C
122 °C

Data request: Which melting point value is on record for O=C1CCC(=O)C(c2ccccc2)N1 (centres undefined) ?
Data returned: 160 to 164 °C

* * *

quantity_kind: melting point

Cc1oc(-c2ccccc2)nc1COc1ccc(COc2nn(Cc3ccc(OCc4nc(-c5ccccc5)oc4C)cc3)cc2C=O)cc1	155 to 156 °C
Cc1cc(N)nc(CCCCCCCCCCO)c1O	138 to 139 °C
CCC(=O)N[C@H]1CC[C@H](CCN2CCC(c3cccc4c3CCO4)CC2)CC1	192 °C
Cc1cc(-c2ccc(-c3ccoc3)cc2)n(-c2ccc(S(C)(=O)=O)cc2)c1	193 to 195 °C

// input: 6 compounds below; output: melting point for each
1. CC(C)(C)OC(=O)Cn1c(C(=O)OCc2ccccc2)cc2ccccc21
2. O=C(OCCn1c(-c2ccccc2)nc2cc(CN3CCN(C(c4ccccc4)c4ccccc4)CC3)ccc21)c1ccccc1
3. Cc1cc(C=CC#N)cc(C(=O)c2c(C(C)C)c(=O)[nH]c(=O)n2CC2CC2)c1
4. CN(Cc1cccs1)C(=O)C1CC2C=CC1C2 (stereo not given)
5. Cc1ccc(-c2cc(CCCO)nn2-c2ccc(S(N)(=O)=O)cc2)cc1
6. O=c1oc2ncccc2n1CCCBr

Data returned:
95 to 96 °C
164 °C
225 to 226 °C
74 to 75 °C
123 to 126 °C
62 to 63 °C

* * *

quantity_kind: melting point

Would you please look over these solved cases?
CCOC(=O)c1nc(NC(=N)N=CN(C)C)sc1-c1ccncc1	203 to 204 °C
COC(=O)COc1ccc(-c2c3ccccc3cc3sc4cc(OCC(=O)OC)ccc4c23)cc1	152 to 154 °C

// input: 5 molecules below; output: melting point for each
1. O=C(O)c1cc(C(=O)C2CCCCC2)cc2c1OC(c1ccccc1)(c1ccccc1)O2
2. COc1ccc(-c2cnn3c(N)c(-c4cccc(Cl)c4)c(C)nc23)cc1OC
3. COc1ccc2c(c1)CC[C@@H]1[C@@H]2CC[C@@]2(C)[C@H]1CCC21C=CCO1 (stereo partly drawn)
4. CC(C)(C)OC(=O)N[C@@H](Cc1ccccc1)[C@@H](O)CO
5. CN1CCN(c2ccccc2CC2CCN(c3ccc(F)c(F)c3)C2=O)CC1 (stereo not drawn)

Data returned:
["212 to 214 °C", "223 to 226 °C", "159 to 161 °C", "95 to 96 °C", "130 to 131 °C"]

Data request: Which melting point value is on record for "CC(C)(C)n1nc(-c2ccccc2)c(C(N)=O)c1N" ?
Data returned: 177 to 178 °C

* * *

Hi there, I'd appreciate the recorded melting point for every entry that follows.

Would you please look over these solved cases?
CCCCN(CCCC)c1ccc(C(=O)c2ccccc2C(=O)O)cc1	171 to 172 °C
Oc1cccnc1Cc1cccc(Br)c1	160 to 162 °C
Cc1c(-c2ccncn2)nc2n(c1=O)CCCN2CC(=O)c1ccccc1	184 to 185 °C

// input: 2 compounds below; output: melting point for each
1. COc1ccc(C)cc1NC(=O)Nc1ccc(N2CCN(C(=O)Nc3ccc(OCCO)cc3C(F)(F)F)CC2)nc1
2. CCOC(=O)c1c(N2CCN(C(=O)c3cccs3)CC2)c2cccnc2n(C)c1=O

Data returned:
198 to 200 °C
164 °C

// input: 3 compounds below; output: melting point for each
1. CC(C)N1CC(CO)CC2c3cccc4[nH]cc(c34)CC21 (centres undefined)
2. COc1ccc(NC(=O)c2ccc(COc3ccc4c(c3)CCC(CCN3CCCCC3)C4)cc2)cc1 (centres undefined)
3. O=Cc1ccc(OCCBr)cc1

Data returned:
1. 192 to 194 °C
2. 193 to 196 °C
3. 49.5 to 50 °C

// input: 8 compounds below; output: melting point for each
1. COc1cc(CC(=O)O)ccc1NC(=O)Nc1ccccc1C(F)(F)F
2. COc1ccc(CN(C)CCCCc2ccc(NC(=O)c3cccc4c(=O)c5cccc([N+](=O)[O-])c5[nH]c34)cc2)cc1OC
3. N#CCNC(=O)C1(NC(=O)c2ccc(N3CCNCC3)cc2)CCCCC1
4. C=CCC(=C)C(O)C(NC=O)C(=O)OC (centres undefined)
5. COc1cnn(-c2cc(Cl)cc(Cl)c2)c(=O)n1
6. O=C(N[C@@H](Cc1c[nH]cn1)C(=O)OCc1ccsc1)C(Cc1cccc2ccccc12)Cc1cccc2ccccc12
7. COc1ccc(Cn2nnnc2C(=O)Nc2cc(C#N)cc(NC(=O)c3nnnn3Cc3ccc(OC)cc3)c2Cl)cc1
8. COc1cc(C(=O)O)ccc1OCCCCCOc1ccc(C#N)cc1

Data returned:
["218 to 220 °C", "174 °C", "206 to 210 °C", "75 to 77 °C", "164 °C", "200 to 203 °C", "223 to 225 °C", "159 to 161 °C"]

// input: 3 compounds below; output: melting point for each
1. COc1cccc(N2C(CO)=Cc3cc(S(N)(=O)=O)sc3S2(=O)=O)c1
2. O=C1OCCC12Sc1ccccc1C2=O (centres undefined)
3. Cn1c(=O)[nH]c(=O)c2c1ncn2Cc1noc(Cc2ccccc2)n1

Data returned:
["180 to 182 °C", "125 to 127 °C", "188 to 190 °C"]
